These entries and their values trace back to ChEMBL document CHEMBL5303304.

In this section, each of the compounds is paired with its reported Growth Rate.
- Tested on: U2OS
- Protocol Description: Incucyte cell viability with U2OS; note: unitless GR value; below 1 slowed growth and below 0 cell loss
- Format: toxicity, cell-based
- Run Parameters: human, 24 h, 10 µM, compound concentration 10 uM, replicate number 2

{"columns": ["Compound", "Growth Rate"],
 "data": [
  ["Cc1ccc(C(=O)Nc2cc(N3CCN(C)CC3)cc(C(F)(F)F)c2)cc1-n1cc(-c2cnn(C)c2C)nn1.Cl", 0.66],
  ["CCCS(=O)(=O)Nc1ccc(F)c(Nc2ncnc3cnc(-n4cnc(C)c4)nc23)c1F", 0.67],
  ["CC(=O)N1CCC(c2ccc(C(=O)NC(=N)N)cc2C(F)(F)F)CC1", 0.92],
  ["O=C1C[C@@H]2OCC=C3CN4CC[C@]56c7ccccc7N1[C@H]5[C@H]2[C@H]3C[C@H]46", 0.91],
  ["CSc1ccc(C(=O)/C=C/c2cc(C)c(OC(C)(C)C(=O)O)c(C)c2)cc1", 0.76],
  ["Cc1c(NC(=O)c2cccn(-c3ccc(F)cc3)c2=O)ccc(Oc2ccnc(NC(=O)C3CC3)c2)c1C", 0.96],
  ["COc1ccccc1N1CCN(c2ncnc3c2cnn3-c2ccccc2)CC1", 0.85],
  ["COc1cc(F)ccc1-c1ncnc(Nc2cccc(C[S@](C)(=N)=O)c2)n1", -0.05],
  ["CN(Cc1cccc(F)c1CNc1cc(F)c(S(=O)(=O)Nc2cscn2)c(F)c1)C(C)(C)C", 0.96],
  ["CCNc1ccc(-c2nn(-c3ccccc3C)c3c2C(C)Cc2nc(NC(=O)OC)sc2-3)cn1.O=C(O)C(F)(F)F (stereo not given)", 0.07],
  ["O=C(NC[C@@H]1[C@H]2CN(C(=O)OCc3cc(C(F)(F)F)cc(C(F)(F)F)c3)C[C@@H]12)c1ccc2[nH]nnc2c1", 0.42],
  ["Clc1ccccc1C(c1ccccc1)(c1ccccc1)n1ccnc1", 0.76],
  ["Cc1nnc2n1-c1sc(CCC(=O)N3CCOCC3)cc1C(c1ccccc1Cl)=NC2", 0.98],
  ["COc1cc2c(cc1CC=C(C)C)C(=O)C[C@@H](c1ccc(O)cc1)O2", 0.99],
  ["Cc1cc(Cn2c(N3CC4(CNC4)C3)nc3c(N4CCN(C)CC4)cc(Cl)cc32)cc(C)c1F", -0.77],
  ["CC#CC(=O)N1CCN(c2nc(-c3ccc(Oc4ccccc4)cc3)c(C(N)=O)s2)CC1", 0.94],
  ["CC(C)c1cnn2c(NCc3ccccc3)cc(NCCCCCCN)nc12.Cl", 0.71],
  ["O=C(CNC(=O)c1ccc(-c2ccccc2)cc1)NC1CCCc2ccccc21 (stereo not given)", 0.93],
  ["COc1cc(N[C@@H]2CCCC[C@]2(O)C(F)(F)F)ccc1F", 0.77],
  ["COc1ccc(Cl)cc1[C@]1(F)C(=O)Nc2cc(C(F)(F)F)ccc21", 0.95],
  ["Cc1ccccc1Oc1cc(-n2c(=O)cc(C(F)(F)F)[nH]c2=O)c2ccccc2c1Cl", 0.86],
  ["Cn1cc(-n2cnc3c(NCc4nc5cc(Cl)c(Cl)cc5[nH]4)nc(N4CCOCC4)nc32)cn1", -0.53],
  ["CN(CCCCCCC1=C(c2cc(F)cc(F)c2)CCCc2cc(O)ccc21)CCCCS(=O)(=O)CCCC(F)(F)F", -0.49],
  ["COc1cc([N+](=O)[O-])ccc1NC(=O)c1ccccc1O", 0.55],
  ["C=C(F)C(=O)N1CCN(c2nc(OC[C@@H]3CCCN3C)nc3c2CCN(c2cccc4cccc(Cl)c24)C3)C[C@@H]1CC#N", -0.3],
  ["CNC(=O)c1c(F)cccc1Nc1nc(Nc2cc3c(cc2OC)CCN3C(=O)CN(C)C)nc2[nH]ccc12", -0.14],
  ["Cn1nccc1-c1ccc(Sc2cccc(C3(C(N)=O)CCOCC3)c2)cc1", 0.93],
  ["O=C(Nc1ccccc1C(=O)O)c1cc(S(=O)(=O)c2ccccc2)ccc1Cl", 0.8],
  ["CC(C)(O)c1coc(S(=O)(=O)NC(=O)Nc2c3c(cc4c2CCC4)CCC3)c1", 0.94],
  ["COc1ccc(-n2c(C)c([N+](=O)[O-])c3ccc(O)cc32)cc1", 0.77],
  ["Nc1c(CC(=O)O)cccc1C(=O)c1ccc(Br)cc1", 0.95],
  ["COc1cc(Nc2cnc(C#N)c(O[C@H](C)CN(C)C)n2)ncc1-c1cnn(C)c1", 0.43],
  ["CO[C@H](C)CN1CC[C@@]2(C)c3ccc(O)cc3C[C@@H]1C2(C)C.Cl", 0.82],
  ["CC(C)S(=O)(=O)c1ccccc1Nc1nc(N[C@@H]2CCCN(CCCCCCCNC(=O)COc3cccc4c3C(=O)N(C3CCC(=O)NC3=O)C4=O)C2)ncc1Cl (stereo not given in full)", 0.04],
  ["COc1c(OCCCN2CCOCC2)ccc2c1N=C(NC(=O)c1cnc(N)nc1)N1CCN=C21", 0.79]
]}
